Assay: logP(HCOOH) by HPLC
Assay type: physicochemical
Details: HPLC on reversed phase columns, pH 2.7, 0.1% formic acid in water / acetonitrile gradient
property_name: log p

CC(=NOCC(=O)Nc1cccc(CON=C(c2ccccc2)n2nnnc2C)n1)C(C)(C)C; 4.34
CCC(OC1CCCCC1)C(=O)Nc1cccc(CON=C(c2ccccc2)c2nnnn2C)n1 (stereo not shown); 4.88
CC1=C(CC(C)OCC(=O)Nc2cccc(CON=C(c3ccccc3)c3nnnn3C)n2)C1 (stereo not shown); 4.3
CC1=C(CC(C)OCC(=O)Nc2nc(CON=C(c3ccccc3)c3nnnn3C)cs2)C1(C)C (stereo not shown); 4.83
Cn1nnnc1C(=NOCc1csc(NC(=O)CON=C2CCCCC2)n1)c1ccccc1; 3.46
CC1CCC(OC(C)C(=O)Nc2cccc(CON=C(c3ccccc3)c3nnnn3C)n2)CC1 (stereo not shown); 4.81
CCC(OC1CCCCCC1)C(=O)Nc1cccc(CON=C(c2ccccc2)c2nnnn2C)n1 (stereo not shown); 5.27
Cn1nnnc1C(=NOCc1csc(NC(=O)OCCCC#C[Si](C)(C)C)n1)c1ccccc1; 4.71
CC(C)=NOC(C)C(=O)Nc1cccc(CON=C(c2ccccc2)n2nnnc2C)n1 (stereo not shown); 3.35
Cn1nnnc1C(=NOCc1csc(NC(=O)OC2CCc3ccccc3C2)n1)c1ccccc1 (stereo not shown); 4.14
CC1=C(CC(C)OCC(=O)Nc2cccc(CON=C(c3ccccc3)c3nnnn3C)n2)C1(C)C (stereo not shown); 5.14
CC1=C(CC(C)OC(=O)Nc2nc(CON=C(c3ccccc3)n3nnnc3C)cs2)C1 (stereo not shown); 4.11
CC1CCCC(OC(C)C(=O)Nc2cccc(CON=C(c3ccccc3)c3nnnn3C)n2)C1 (stereo not shown); 4.81
CC1=C(CC(C)OCC(=O)Nc2nc(CON=C(c3ccccc3)n3nnnc3C)cs2)C1(C)C (stereo not shown); 4.91
CC(=NOCC(=O)Nc1cccc(CON=C(c2ccccc2)n2nnnc2C)n1)c1ccccc1; 3.94
CC1=C(CC(C)OCC(=O)Nc2nc(CON=C(c3ccccc3)n3nnnc3C)cs2)C1 (stereo not shown); 4.11

* * *

Experiment: logP(HCOOH) by HPLC
Assay type: physicochemical
Settings: HPLC on reversed phase columns, pH 2.7, 0.1% formic acid in water / acetonitrile, linear gradient 10% to 95% acetonitrile; EEC directive 79/831 Annex V.A8
Consider the following molecules and their measured log p readings.
property_name: log p

CCON=C(C(=O)Nc1cccc(CON=C(c2ccccc2)c2nnnn2C)n1)c1ccc(Cl)cc1; 4.83
CCC(OC1CCCCCC1)C(=O)Nc1cccc(CON=C(c2ccccc2)n2nnnc2C)n1 (stereo not shown); 5.41
Cc1nnnn1C(=NOCc1csc(NC(=O)OCCCC2CC2)n1)c1ccccc1; 3.9
Cn1nnnc1C(=NOCc1cccc(NC(=O)COC2CCC2)n1)c1ccccc1; 3.46
C#CCOCC(=O)Nc1cccc(CON=C(c2ccccc2)n2nnnc2C)n1; 2.86
C=CCCOC(C)C(=O)Nc1nc(CO/N=C(/c2ccccc2)c2nnnn2C)cs1 (stereo not shown); 3.48
Cc1nnnn1C(=NOCc1cccc(NC(=O)OCC2CCCC2)n1)c1ccccc1; 4.41
Cn1nnnc1C(=NOCc1cccc(NC(=O)OCCCC2CCCC2)n1)c1ccccc1; 5.06
CC(OC1CCCC1)C(=O)Nc1cccc(CON=C(c2ccccc2)c2nnnn2C)n1 (stereo not shown); 4.11
Cc1nnnn1C(=NOCc1cccc(NC(=O)C(C)OC2CCCCCC2)n1)c1ccccc1 (stereo not shown); 4.86
C#CCOC(C(=O)Nc1cccc(CON=C(c2ccccc2)c2nnnn2C)n1)C(C)C (stereo not shown); 3.63
Cn1nnnc1C(=NOCc1csc(NC(=O)OCC2CC2)n1)c1ccccc1; 3.23
Cc1nnnn1C(=NOCc1cccc(NC(=O)OC(C)C2CCCCC2)n1)c1ccccc1 (stereo not shown); 5.08
CON=C(C(=O)Nc1cccc(CON=C(c2ccccc2)c2nnnn2C)n1)c1ccc(Cl)cc1; 4.51
Cn1nnnc1/C(=N\OCc1cccc(NC(=O)OCCC2CCCCC2)n1)c1ccccc1; 5.11
Cn1nnnc1C(=NOCc1cccc(NC(=O)COC2CCCC2)n1)c1ccccc1; 3.83
C#CCOC(CC)C(=O)Nc1nc(CON=C(c2ccccc2)n2nnnc2C)cs1 (stereo not shown); 3.11
Cn1nnnc1C(=NOCc1cccc(NC(=O)OCC2CCC2)n1)c1ccccc1; 3.92
C=C=CCCC(=O)Nc1nc(CON=C(c2ccccc2)c2nnnn2C)cs1; 3.11
CC(OC(=O)Nc1cccc(CON=C(c2ccccc2)c2nnnn2C)n1)C1CCCCC1 (stereo not shown); 4.98
CC(C)=NOC(C)C(=O)Nc1cccc(CO/N=C(/c2ccccc2)c2nnnn2C)n1 (stereo not shown); 3.25
C#CCOC(C(=O)Nc1nc(CON=C(c2ccccc2)n2nnnc2C)cs1)C(C)C (stereo not shown); 3.46
Cn1nnnc1C(=NOCc1csc(NC(=O)OCCC2CC2)n1)c1ccccc1; 3.46
CC(=NOCC(=O)Nc1nc(CON=C(c2ccccc2)n2nnnc2C)cs1)C(C)(C)C; 4.04
Cn1nnnc1C(=NOCc1cccc(NC(=O)OCCC2CCCC2)n1)c1ccccc1; 4.61
Cn1nnnc1C(=NOCc1csc(NC(=O)COCC#C[Si](C)(C)C)n1)c1ccccc1; 3.7
C=CCCCOCC(=O)Nc1cccc(CON=C(c2ccccc2)n2nnnc2C)n1; 3.83
Cc1nnnn1C(=NOCc1cccc(NC(=O)OCCCC2CCCCC2)n1)c1ccccc1; 5.62
Cn1nnnc1C(=NOCc1csc(NC(=O)OCCCC2CC2)n1)c1ccccc1; 3.85
CC1CCC(C(C)C)C(OCC(=O)Nc2nc(CON=C(c3ccccc3)c3nnnn3C)cs2)C1 (stereo not shown); 5.39
Cc1nnnn1C(=NOCc1cccc(NC(=O)COC2CC(C)CCC2C(C)C)n1)c1ccccc1 (stereo not shown); 5.95
CCC(OC1CCCCC1)C(=O)Nc1nc(CON=C(c2ccccc2)n2nnnc2C)cs1 (stereo not shown); 4.56
C#CCOC(C(=O)Nc1nc(CON=C(c2ccccc2)c2nnnn2C)cs1)C(C)C (stereo not shown); 3.44
Cc1nnnn1C(=NOCc1cccc(NC(=O)COC2CCCCC2)n1)c1ccccc1; 4.25

* * *

Experiment: logP(HCOOH) by HPLC
Assay type: physicochemical
Settings: HPLC on reversed phase columns, pH 2.7, 0.1% formic acid in water / acetonitrile, linear gradient 10% to 95% acetonitrile; EEC directive 79/831 Annex V.A8
This listing pairs molecules with measured log p.
property_name: log p

C=CCCCOCC(=O)Nc1nc(CON=C(c2ccccc2)c2nnnn2C)cs1 [Example 6]; 3.52
Cn1nnnc1C(=NOCc1csc(NC(=O)OCC2CCCCC2)n1)c1ccccc1 [Example 61]; 4.37
C=C=CCCCOC(=O)Nc1cccc(CON=C(c2ccccc2)n2nnnc2C)n1 [compound 142]; 4.01
CON=C(C(=O)Nc1nc(CON=C(c2ccccc2)c2nnnn2C)cs1)c1ccc(C)cc1 [compound 129]; 4.05
CCC(OC1CCCC1)C(=O)Nc1cccc(CON=C(c2ccccc2)n2nnnc2C)n1 (centres unmarked) [compound 188]; 4.65
C=C(C)C(C)=CCC(C)OCC(=O)Nc1nc(CON=C(c2ccccc2)n2nnnc2C)cs1 (centres unmarked) [compound 110]; 4.56
Cc1nnnn1C(=NOCc1cccc(NC(=O)OCC2CC2)n1)c1ccccc1 [Example 17]; 3.52
C=C=CCCC(=O)Nc1nc(CON=C(c2ccccc2)n2nnnc2C)cs1 [compound 139]; 3.09

* * *

# log p per record follows
Assay: logP(HCOOH) by HPLC
Format: physicochemical
Conditions: HPLC on reversed phase columns, pH 2.7, 0.1% formic acid in water / acetonitrile, linear gradient 10% to 95% acetonitrile; EEC directive 79/831 Annex V.A8
property_name: log p

C#CCOC(C)C(=O)Nc1cccc(CO/N=C(/c2ccccc2)c2nnnn2C)n1 (centres unmarked); 3.04
Cn1nnnc1C(=NOCc1csc(NC(=O)OCCCC2CCCC2)n1)c1ccccc1; 4.7
Cn1nnnc1C(=NOCc1cccc(NC(=O)COC2CCCCC2)n1)c1ccccc1; 4.15
Cc1nnnn1C(=NOCc1csc(NC(=O)OCCC2CC2)n1)c1ccccc1; 3.5
CC(CC1CC1)OC(=O)Nc1nc(CON=C(c2ccccc2)c2nnnn2C)cs1 (centres unmarked); 3.83

* * *

Below, each of the compounds is paired with its reported log p value.
Experiment: logP(HCOOH) by HPLC
Assay type: physicochemical
Conditions: HPLC on reversed phase columns, pH 2.7, 0.1% formic acid in water / acetonitrile gradient
property_name: log p

Cn1nnnc1C(=NOCc1csc(NC(=O)CC=COc2ccccc2)n1)c1ccccc1; 3.57
CC1=C(CC(C)OCC(=O)Nc2cccc(CON=C(c3ccccc3)n3nnnc3C)n2)C1 (stereo not shown); 4.37
Cc1nnnn1C(=NOCc1csc(NC(=O)CC=COc2ccccc2)n1)c1ccccc1; 3.61
CCC(OC1CCCC1)C(=O)Nc1cccc(CON=C(c2ccccc2)c2nnnn2C)n1 (stereo not shown); 4.51
CC=NOCCOC(=O)Nc1cccc(CON=C(c2ccccc2)c2nnnn2C)n1; 2.96
CC1=C(CC(C)OCC(=O)Nc2cccc(CON=C(c3ccccc3)n3nnnc3C)n2)C1(C)C (stereo not shown); 5.42
CCC(OC1CCC1)C(=O)Nc1cccc(CON=C(c2ccccc2)c2nnnn2C)n1 (stereo not shown); 4.11
CC(C)=NOCCOC(=O)Nc1cccc(CON=C(c2ccccc2)c2nnnn2C)n1; 3.11
CC1=C(CC(C)OC(=O)Nc2nc(CON=C(c3ccccc3)n3nnnc3C)cs2)C1(C)C (stereo not shown); 4.86
CC1=C(CC(C)OC(=O)Nc2nc(CON=C(c3ccccc3)c3nnnn3C)cs2)C1 (stereo not shown); 4.06
CC1=C(CC(C)OCC(=O)Nc2nc(CON=C(c3ccccc3)c3nnnn3C)cs2)C1 (stereo not shown); 4.03
CC1=C(CC(C)OC(=O)Nc2nc(CON=C(c3ccccc3)c3nnnn3C)cs2)C1(C)C (stereo not shown); 4.68
Cn1nnnc1C(=NOCc1csc(NC(=O)CC[Si](C)(C)C)n1)c1ccccc1; 4.01
